system: Staphylococcus aureus; test: Antibacterial activity against Staphylococcus aureus ATCC 25923 by two fold broth dilution method; format: functional
readout-label: MIC (µg/mL)

chem-smiles	experimental-target	data-value
COc1cccc(-c2nnc(-c3cc([N+](=O)[O-])c[nH]3)o2)c1	Staphylococcus aureus	1.56
COc1ccc(-c2nnc(-c3cc([N+](=O)[O-])cn3C)o2)cc1	Staphylococcus aureus	0.78
Cn1cc([N+](=O)[O-])cc1-c1nnc(Cc2ccc(F)c3ccccc23)o1	Staphylococcus aureus	0.78
O=[N+]([O-])c1c[nH]c(-c2nnc(-c3cc4cc(Cl)ccc4[nH]3)o2)c1	Staphylococcus aureus	1.56

====

test system: Vero; experiment: Cytotoxicity against african green monkey Vero cells after 72 hrs by MTT assay; format: cell-based; details: Chlorocebus sabaeus
pIC50: −log10 of the molar value.
readout-label: pIC50

chem-smiles	readout-label	data-value
Cc1ccc(-c2nnc(-c3cc([N+](=O)[O-])cn3C)o2)s1	pIC50	4.01
Cn1cc([N+](=O)[O-])cc1-c1nnc(Cc2ccccc2F)o1	pIC50	3.61
COc1cccc(OC)c1-c1nnc(-c2cc([N+](=O)[O-])c[nH]2)o1	pIC50	3.77
Cn1cc([N+](=O)[O-])cc1-c1nnc(Cc2ccc(F)c3ccccc23)o1	pIC50	3.92
O=[N+]([O-])c1c[nH]c(-c2nnc(-c3cc(-c4ccccc4)nc4ccc(Cl)cc34)o2)c1	pIC50	3.55
Cc1ccc(-c2nnc(-c3cc([N+](=O)[O-])c[nH]3)o2)s1	pIC50	3.48
O=[N+]([O-])c1c[nH]c(-c2nnc(-c3ccns3)o2)c1	pIC50	3.27
COc1ccc(-c2nnc(-c3cc([N+](=O)[O-])cn3C)o2)cc1	pIC50	3.55
COc1cc(/C=C/c2nnc(-c3cc([N+](=O)[O-])cn3C)o2)ccc1O	pIC50	3.69
Cn1cc([N+](=O)[O-])cc1-c1nnc(-c2ccc(C#N)cc2)o1	pIC50	3.50
Cn1cc([N+](=O)[O-])cc1-c1nnc(-c2ccccc2OC(F)(F)F)o1	pIC50	3.51
Cn1cc([N+](=O)[O-])cc1-c1nnc(-c2ccns2)o1	pIC50	3.50
COc1cccc(OC)c1-c1nnc(-c2cc([N+](=O)[O-])cn2C)o1	pIC50	3.75
Cn1cc([N+](=O)[O-])cc1-c1nnc(-c2cccs2)o1	pIC50	3.28
O=[N+]([O-])c1c[nH]c(-c2nnc(-c3ccco3)o2)c1	pIC50	3.43
COc1cc(/C=C/c2nnc(-c3cc([N+](=O)[O-])c[nH]3)o2)ccc1O	pIC50	3.66
Cn1cc([N+](=O)[O-])cc1-c1nnc(-c2cc3ccccc3[nH]2)o1	pIC50	3.96
Cn1cc([N+](=O)[O-])cc1-c1nnc(-c2ccccc2Br)o1	pIC50	3.52
Cn1cc([N+](=O)[O-])cc1-c1nnc(-c2ccco2)o1	pIC50	3.72
